Procedure Summary: yeast display, Sf9 membrane polyspecificity reagent, FACS + sequencing; frameworks hold sequencing errors

Sequence Chain: QVQLVESGGGLDQAGGRLRLSCAASGSTFSYYAKSWYIQAPGKERELVARITWRGGSTNYADSVKGRFTISRDNAKNTVYLQMNSLKPEDTAVYYCATKLTSRVPFDYWGQGTQVTVSS
polyreactivity (PSR sort gate): high polyreactivity

Sequence Chain: QVQLVESGGGLVQAGGSLRLSCAASGFISTPYAIGWYRQAPGKERELVAAIDISGGRTYYADSVKGRFTISRDNAKNTVYLQMNSLKPEDTAVYDCAAQLVSSYYAWYRTYYYWGQGTQVTVSS
polyreactivity (PSR sort gate): high polyreactivity

###

Procedure Summary: yeast display, Sf9 membrane polyspecificity reagent, FACS + sequencing; frameworks hold sequencing errors
Readout Label: polyreactivity (PSR sort gate)

Use the examples below as a reference point.
Sequence Chain: QVQLVESGGGLVQAGGSLRLSCAASGSTYQGYAMGWYRQAPGKERELVAAISGRSGSTYYADSVKGRFTISRDNAKNTVYLEMNSLKQEDTAVYYFNAVTGVNPSLDYWGQGTQVTVSS
polyreactivity (PSR sort gate): high polyreactivity

Sequence Chain: QVQLVESGGGLVQARGSLRLSCAASGIILYRNGMGWYRQAPGKERELVAAISWSTGSTYYADSVKGRFTISRDNAKNTVYLQMNSLKPEDTAVYYCATDYVGYSFGMYYWGQGTQVTVSS
polyreactivity (PSR sort gate): low polyreactivity

Sequence Chain: QVQLVESGGGLVQAGGSLRLSCAASGSIIHRNAMGWYRQAPGKERELVATITSNGGSTYYADSVKGRFTISRDNAKNTVYLQMNSLKPEETAVYYCARKYRSPISALLTGDYWGQGTQVTVSS
polyreactivity (PSR sort gate): low polyreactivity

Sequence Chain: QDQIVESGGGLVQAGGSLRLSCAASGRTFGVNTMGWSRQAPGKVREMVASISTSGGSTYADSVKGRFTISRDNPKNTVYLQMNSLKPEDSAVYYCAKDTDAVYDEFDSWGQGTQVTVSS
polyreactivity (PSR sort gate): low polyreactivity

Sequence Chain: QVQLEESGGGLVQAGGSLRLSSAASGRIFRAYAMGRYRQAPGKERELVAAITSGGGSTYYADSVKGRFTISRHNAKNTVYLQMNSLKPEDTAVYYSAAKSSRIAYSSWFYYATFDYWGQGTQVTVSS
polyreactivity (PSR sort gate): high polyreactivity

Sequence Chain: QVQLVESGGGLVQAGGSLSLSCAASGSIFRSYAMGWYRQAPGKERELVAAITNGGSTYYADSVKGRFTISRDNAKNTVYLQMNSLKPEDTAVYYCAAARYTYWFYLVKKTGYYWGQGTQVTVSS
polyreactivity (PSR sort gate): high polyreactivity

Input line: Respond only with polyreactivity (PSR sort gate) recorded for `QVQLVESGGGVVQAGGSLRISCAATGFIFRWYAMGWYIQAPGKERELVASINWSGSRTNYADPVKGRFTISRDNAKNTVYLQMNSLKPEDTAVYYCATYGTTSGYDSWGQGTQVTVSS`
Output line: high polyreactivity

Input line: Respond only with polyreactivity (PSR sort gate) recorded for `QVQLVESGGGLVQAGGSLRLSCAASGITFYGNAMGWYRQAPGKERELVATISRSDGRTYYADSVKGRFTISRDNANNTVYLQMNSLKPEDTAVYYCAAYTTRPYWGQGTQVTVSS`
Output line: high polyreactivity
